β-Galactosidase activity of the iagA′-lacZ fusion (Table VII) values, listed per item
Test system: iagA′-lacZ fusion (S. typhi strain Ty267)
procedure text: β-galactosidase activity of the iagA′-lacZ fusion in favourable LB medium
Type: cell-based
run conditions: fatty acid as sodium salt, 5 mM in favourable LB medium, 6 hours at 37° C.; control 22022 ± 1177
property measured: β-Galactosidase activity of the iagA′-lacZ fusion (Table VII)

molecule: CCCCCCCC(=O)[O-].[Na+] [sodium caprylate]
test system: iagA′-lacZ fusion (S. typhi strain Ty267)
result: 445 ± 69 β-galactosidase units

molecule: CCC(=O)O [Propionic acid]
test system: iagA′-lacZ fusion (S. typhi strain Ty267)
result: 14650 ± 1333 β-galactosidase units

molecule: CCCC(=O)O [Butyric acid]
test system: iagA′-lacZ fusion (S. typhi strain Ty267)
result: 21225 ± 1741 β-galactosidase units

molecule: CCCCCCC(=O)O [Oenanthic acid]
test system: iagA′-lacZ fusion (S. typhi strain Ty267)
result: 525 ± 43 β-galactosidase units

molecule: NCCCCCCCC(=O)O [8-Aminocaprylic acid]
test system: iagA′-lacZ fusion (S. typhi strain Ty267)
result: 18077 ± 1263 β-galactosidase units

molecule: CCCCCCC(N)C(=O)O (stereo not drawn) [2-Aminocaprylic acid]
test system: iagA′-lacZ fusion (S. typhi strain Ty267)
result: 33149 ± 2520 β-galactosidase units

molecule: CC(=O)O [Acetic acid]
test system: iagA′-lacZ fusion (S. typhi strain Ty267)
result: 29265 ± 1692 β-galactosidase units

molecule: CCCCCC(=O)O [Caproic acid]
test system: iagA′-lacZ fusion (S. typhi strain Ty267)
result: 347 ± 21 β-galactosidase units

molecule: CCCCCCC(O)C(=O)O (stereo not drawn) [2-Hydroxycaprylic acid]
test system: iagA′-lacZ fusion (S. typhi strain Ty267)
result: 225 ± 72 β-galactosidase units

molecule: CCCCCCCCC(=O)O [Pelargonic acid]
test system: iagA′-lacZ fusion (S. typhi strain Ty267)
result: 383 ± 54 β-galactosidase units

molecule: O=C(O)CCCCCCCO [8-Hydroxycaprylic acid]
test system: iagA′-lacZ fusion (S. typhi strain Ty267)
result: 593 ± 49 β-galactosidase units

molecule: CCCCC(=O)O [Valeric acid]
test system: iagA′-lacZ fusion (S. typhi strain Ty267)
result: 509 ± 91 β-galactosidase units

---

System: iagA′-lacZcat fusion in S. typhi strain Ty267
procedure text: "Biotype 100" plate screen for carbon-based substrates that repress the iagA′-lacZcat fusion (β-galactosidase activity)
Assay type: cell-based
run conditions: "Biotype 100" cupule, amount of substrate not known; favourable LB medium; 36 hours at 37° C.; control cupule without substrate 11 250
property measured: β-galactosidase activity expressed by the iagA′-lacZ fusion in the cupule

molecule: O=C([O-])c1ccccc1.[Na+] [sodium benzoate]
test system: iagA′-lacZcat fusion in S. typhi strain Ty267
result: 245 β-galactosidase units

molecule: CCCCCCCC(=O)[O-].[Na+] [sodium caprylate]
test system: iagA′-lacZcat fusion in S. typhi strain Ty267
result: 47 β-galactosidase units

molecule: O=C([O-])Cc1ccccc1.[Na+] [sodium phenylacetate]
test system: iagA′-lacZcat fusion in S. typhi strain Ty267
result: 81 β-galactosidase units

molecule: O=C([O-])CCc1ccccc1.[Na+] [sodium 3-phenylpropionate]
test system: iagA′-lacZcat fusion in S. typhi strain Ty267
result: 166 β-galactosidase units
